target: V₁ receptor (Rattus norvegicus, UniProt P30560); construct: Using rat liver plasma membrane preparations; test: V₁ receptor binding assay ([³H]-Arg-vasopressin, rat liver plasma membrane preparations); conditions: 37°C for 10 minutes
Sequence (P30560 whole entry): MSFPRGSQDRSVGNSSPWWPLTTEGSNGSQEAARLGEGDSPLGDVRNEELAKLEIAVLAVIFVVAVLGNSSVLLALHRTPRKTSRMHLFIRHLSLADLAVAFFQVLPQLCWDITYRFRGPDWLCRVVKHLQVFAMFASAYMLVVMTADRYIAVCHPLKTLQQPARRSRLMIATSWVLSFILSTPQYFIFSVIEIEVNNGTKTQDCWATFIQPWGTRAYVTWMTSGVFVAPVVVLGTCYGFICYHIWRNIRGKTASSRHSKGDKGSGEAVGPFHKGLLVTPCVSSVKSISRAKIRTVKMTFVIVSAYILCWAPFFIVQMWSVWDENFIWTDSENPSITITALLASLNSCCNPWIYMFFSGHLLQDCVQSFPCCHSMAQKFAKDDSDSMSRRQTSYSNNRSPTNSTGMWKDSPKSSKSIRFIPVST
IC50 reference
Reply with a number, then the unit it belongs to.

Query: Read off the recorded IC50 for O=C(Nc1ccc(C(=O)N2CCCCc3ccccc32)cc1)c1ccccc1 [compound 27]
Response: 95 nM

Query: Read off the recorded IC50 for CN1CCCN(C(=O)c2ccc(NC(=O)C3CCCCC3)cc2)c2ccccc21 [compound 88]
Response: 340 nM

Query: Read off the recorded IC50 for Cc1ccccc1C(=O)Nc1ccc(C(=O)N2CCCC(C)c3ccccc32)cc1 (centres unmarked) [compound 208]
Response: 110 nM

Query: Read off the recorded IC50 for CN(C)c1ccccc1C(=O)Nc1ccc(C(=O)N2CCCC(N(C)C)c3ccccc32)cc1 (centres unmarked) [compound 298]
Response: 290 nM

Further cases:
Query: Read off the recorded IC50 for CCOC(=O)COc1ccccc1C(=O)Nc1ccc(C(=O)N2CCCCc3ccccc32)cc1 [compound 121]
Response: 450 nM

Query: Read off the recorded IC50 for CC(=O)OCC1CCCN(C(=O)c2ccc(NC(=O)c3ccccc3C)cc2)c2ccccc21 (centres unmarked) [compound 231]
Response: 160 nM

Query: Read off the recorded IC50 for COc1cc(NC(=O)c2ccccc2C)ccc1C(=O)N1CCCC(O)c2ccccc21 (centres unmarked) [compound 238]
Response: 390 nM

Query: Read off the recorded IC50 for Cc1ccccc1C(=O)Nc1ccc(C(=O)N2CCCC(COS(C)(=O)=O)c3ccccc32)cc1 (centres unmarked) [compound 235]
Response: 88 nM

====

Biological target: V₁ receptor (Rattus norvegicus)
Construct: Using rat liver plasma membrane preparations
Experiment: V₁ receptor binding assay ([³H]-Arg-vasopressin, rat liver plasma membrane preparations)
Conditions: 37°C for 10 minutes
Procedure: Using rat liver plasma membrane preparations prepared according to Ichihara's method [cf: Akira Ichihara, J. Bio. […] The amount of [³H]-vasopressin combined with the membrane is measured by liquid scintillation counter and the rate of the inhibitory effect of the test compound is estimated according to the following equation. […] The results are expressed as IC₅₀ values, which is the concentration of the test compound required to achieve the inhibitory effect in the rate of 50 %.
parameter.measured: pIC50
Please keep in mind that pIC50 is minus log10 of the molar concentration; only the number is needed.

Examples with their reported pIC50 follow.
Query: Read off the recorded pIC50 for Cc1ccccc1C(=O)Nc1ccc(C(=O)N2CCCC(OCCCCN(C)C)c3ccccc32)cc1 (stereo not shown)
Response: 6.85

Query: Read off the recorded pIC50 for CN1CCN(CCCCCCOc2ccccc2C(=O)Nc2ccc(C(=O)N3CCCCc4ccccc43)cc2)CC1
Response: 7.16

Query: Read off the recorded pIC50 for Cc1ccccc1C(=O)Nc1ccc(C(=O)N2CCCC(OC(=O)N(C)C)c3ccccc32)cc1 (stereo not shown)
Response: 6.35

Note: attention shifts to another entry.
Query: Read off the recorded pIC50 for COc1cc(C(=O)N2CCCCc3ccccc32)ccc1NC(=O)C1CCCCC1
Response: 7.38

====

biological target: V₂ receptor (Rattus norvegicus); construct: Using rat kidney plasma membrane preparations; assay: V₂ receptor binding assay ([³H]-Arg-vasopressin, rat kidney plasma membrane preparations); settings: 4°C for 3 hours
parameter.measured: pIC50
Please keep in mind that pIC50 is minus log10 of the molar concentration; only the number is needed.

Examples with their reported pIC50 follow.
Query: Read off the recorded pIC50 for Cc1ccccc1C(=O)Nc1ccc(C(=O)N2CCCC(N(C)S(C)(=O)=O)c3ccccc32)cc1 (stereo not shown) [compound 258]
Response: 6.70

Query: Read off the recorded pIC50 for Cc1ccccc1C(=O)Nc1ccc(C(=O)N2CCCC(O)c3ccccc32)cc1 (stereo not shown) [compound 143]
Response: 8.10

Query: Read off the recorded pIC50 for Cc1ccccc1C(=O)Nc1ccc(C(=O)N2CCCC(N(C)C)c3ccccc32)c(N(C)C)c1 (stereo not shown) [compound 197]
Response: 6.00

Note: attention shifts to another entry.
Query: Read off the recorded pIC50 for Cc1ccccc1C(=O)Nc1ccc(C(=O)N2CCCC(NC(=O)Nc3ccccc3)c3ccccc32)cc1 (stereo not shown) [compound 280]
Response: 7.35

====

biological target: V₁ receptor (Rattus norvegicus); construct: Using rat liver plasma membrane preparations; assay: V₁ receptor binding assay ([³H]-Arg-vasopressin, rat liver plasma membrane preparations); settings: 37°C for 10 minutes
pIC50: −log10 of the molar value.
Threshold rule: pIC50 greater than or equal to 7 is rule met; below that, rule not met.

Query: Given the entry Cc1ccccc1C(=O)Nc1ccc(C(=O)N2CCCC(CN=[N+]=[N-])c3ccccc32)cc1 (centres unmarked) [compound 250] , answer whether its pIC50 meets or surpasses 7.
Response: rule not met

Query: Given the entry CNC1CCCN(C(=O)c2ccc(NC(=O)c3ccccc3Cl)c(OC)c2)c2ccc(Cl)cc21 (centres unmarked) [compound 321] , answer whether its pIC50 meets or surpasses 7.
Response: rule met

Query: Given the entry CCN(CC(=O)Nc1ccc(C(=O)N2CCCCc3ccccc32)cc1)c1ccccc1 [compound 114] , answer whether its pIC50 meets or surpasses 7.
Response: rule met

Query: Given the entry COC1CCCN(C(=O)c2ccc(NC(=O)c3ccccc3C)cc2)c2ccccc21 (centres unmarked) [compound 147] , answer whether its pIC50 meets or surpasses 7.
Response: rule not met

Query: Given the entry Cc1ccccc1C(=O)Nc1ccc(C(=O)N2CCCC(OCCCN3C(=O)c4ccccc4C3=O)c3ccccc32)cc1 (centres unmarked) [compound 172] , answer whether its pIC50 meets or surpasses 7.
Response: rule not met

Let us examine a further case.
Query: Given the entry CC(=O)OCCCCOc1ccccc1C(=O)Nc1ccc(C(=O)N2CCCCc3ccccc32)cc1 [compound 117] , answer whether its pIC50 meets or surpasses 7.
Response: rule not met

====

molecular target: V₂ receptor (Rattus norvegicus, UniProt Q00788); construct: Using rat kidney plasma membrane preparations; experiment: V₂ receptor binding assay ([³H]-Arg-vasopressin, rat kidney plasma membrane preparations); details: 4°C for 3 hours
Sequence (Q00788 whole entry): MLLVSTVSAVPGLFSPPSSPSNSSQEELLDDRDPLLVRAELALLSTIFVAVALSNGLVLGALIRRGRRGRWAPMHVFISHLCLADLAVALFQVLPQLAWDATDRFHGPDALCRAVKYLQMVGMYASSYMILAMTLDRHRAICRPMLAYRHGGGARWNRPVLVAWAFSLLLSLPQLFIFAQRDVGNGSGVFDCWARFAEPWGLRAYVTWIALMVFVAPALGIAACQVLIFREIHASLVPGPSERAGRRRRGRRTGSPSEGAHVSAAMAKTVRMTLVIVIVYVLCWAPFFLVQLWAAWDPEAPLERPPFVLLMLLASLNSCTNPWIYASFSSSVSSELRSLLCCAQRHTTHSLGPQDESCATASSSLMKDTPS
IC50 reference
// note: answer is a bare numeric in nM

Query: Read off the recorded IC50 for CN(CCO)CCOc1ccccc1C(=O)Nc1ccc(C(=O)N2CCCCc3ccccc32)cc1
Response: 280

Query: Read off the recorded IC50 for COc1cc(NC(=O)c2ccccc2Cl)ccc1C(=O)N1CCCC(N(C)C)c2ccccc21 (centres unmarked)
Response: 150

Query: Read off the recorded IC50 for O=C(Nc1ccc(C(=O)N2CCCCc3ccccc32)cc1)c1cccc([N+](=O)[O-])c1
Response: 160

Query: Read off the recorded IC50 for CC(C)(COc1ccccc1)NCC(=O)Nc1ccc(C(=O)N2CCCCc3ccccc32)cc1
Response: 440

Query: Read off the recorded IC50 for Cc1ccccc1C(=O)Nc1ccc(C(=O)N2CCCC(NC3CC3)c3cc(Cl)ccc32)cc1 (centres unmarked)
Response: 8

Further cases:
Query: Read off the recorded IC50 for O=C(COc1ccccc1)Nc1ccc(C(=O)N2CCCCc3ccccc32)cc1
Response: 370

Query: Read off the recorded IC50 for CC(=O)NCCCOC1CCCN(C(=O)c2ccc(NC(=O)c3ccccc3C)cc2)c2ccccc21 (centres unmarked)
Response: 7

Query: Read off the recorded IC50 for Cc1ccccc1C(=O)Nc1ccc(C(=O)N2CCCC(OCC(=O)N(C)CCO)c3ccccc32)cc1 (centres unmarked)
Response: 65

====

biological target: V₂ receptor (Rattus norvegicus); construct: Using rat kidney plasma membrane preparations; from tissue; host or cells: rat kidney plasma membranes; assay: V₂ receptor binding assay ([³H]-Arg-vasopressin, rat kidney plasma membrane preparations); details: 4°C for 3 hours
IC50 reference
// note: answer is a bare numeric in µM

Examples with their reported IC50 follow.
Query: Read off the recorded IC50 for COc1ccc2c(c1)CCCN2C(=O)c1ccc(NC(=O)c2cc(Cl)cc(Cl)c2)cc1
Response: 0.089

Query: Read off the recorded IC50 for CN(C)C1CCCN(C(=O)c2ccc(NC(=O)c3ccccc3F)cc2)c2ccccc21 (centres unmarked)
Response: 0.035

Query: Read off the recorded IC50 for Cc1ccccc1C(=O)Nc1ccc(C(=O)N2CCCC(N(C)C)c3ccccc32)c(F)c1 (centres unmarked)
Response: 0.019

Query: Read off the recorded IC50 for CNC1c2ccccc2N(C(=O)c2ccc(NC(=O)c3ccccc3Cl)cc2Cl)CCC1O (centres unmarked)
Response: 0.38

Query: Read off the recorded IC50 for O=C(Nc1ccc(C(=O)N2CCC=Cc3ccccc32)cc1)c1ccccc1Cl
Response: 0.045

Further cases:
Query: Read off the recorded IC50 for COc1cc(NC(=O)c2ccccc2C)ccc1C(=O)N1CCCC(O)c2ccccc21 (centres unmarked)
Response: 0.02

Query: Read off the recorded IC50 for CCN(CC(=O)Nc1ccc(C(=O)N2CCCC(N(C)C)c3cc(Cl)ccc32)cc1)c1ccccc1 (centres unmarked)
Response: 0.023

Query: Read off the recorded IC50 for CCOC(=O)CN(C)C1CCCN(C(=O)c2ccc(NC(=O)c3ccccc3C)cc2)c2ccccc21 (centres unmarked)
Response: 0.029

Query: Read off the recorded IC50 for CN(C)C1CCCN(C(=O)c2ccc(NC(=O)COc3ccccc3)cc2)c2ccccc21 (centres unmarked)
Response: 0.058

Query: Read off the recorded IC50 for CNC1CCN(C(=O)c2ccc(NC(=O)c3cc(Cl)cc(Cl)c3)cc2)c2ccccc21 (centres unmarked)
Response: 0.024

Query: Read off the recorded IC50 for N#Cc1cccc(C(=O)Nc2ccc(C(=O)N3CCCCc4ccccc43)cc2)c1
Response: 0.098

Query: Read off the recorded IC50 for Cc1cccc(C(=O)Nc2ccc(C(=O)N3CCN(C)Cc4ccccc43)cc2)c1C
Response: 0.15

Query: Read off the recorded IC50 for Nc1cccc(C(=O)Nc2ccc(C(=O)N3CCCc4ccccc43)cc2)c1
Response: 1.2

Query: Read off the recorded IC50 for CC1Cc2ccccc2N(C(=O)c2ccc(NC(=O)c3ccccc3)cc2)C1 (centres unmarked)
Response: 0.19

Query: Read off the recorded IC50 for CCOC(=O)NC1CCCN(C(=O)c2ccc(NC(=O)c3ccccc3C)cc2)c2ccccc21 (centres unmarked)
Response: 0.13

Query: Read off the recorded IC50 for Cc1ccc2c(c1)CCCN2C(=O)c1ccc(NC(=O)c2cc(Cl)cc(Cl)c2)cc1
Response: 0.095

Query: Read off the recorded IC50 for CCOC(=O)COc1ccccc1C(=O)Nc1ccc(C(=O)N2CCCCc3ccccc32)cc1
Response: 0.18
